Data provenance: ChEMBL document CHEMBL5625195

test system: Hepatitis B virus; assay: Antiviral activity against HBV infected in AML12HBV10 cells assessed as reduction viral replication incubated for 48 hrs; assay type: functional, organism-based; settings: AML12HBV10, 48 h
pEC50: −log10 of the molar value.
Catalogue of pEC50 readings, one per entry.

Q: Give Hepatitis B virus pEC50 for O=C(Nc1ccc(F)c(Cl)c1)N1CCCCc2ccccc21
Ans: < 5.00

Q: Give Hepatitis B virus pEC50 for O=C(Nc1ccc(F)c(Cl)c1)N1CCN(C(=O)Nc2ccc(F)c(Cl)c2)[C@H]2CCCC[C@H]21
Ans: < 5.00

Q: Give Hepatitis B virus pEC50 for O=C(Nc1ccc(F)c(Cl)c1)C1CCNc2ccccc21 (racemic)
Ans: < 5.00
